The origin of these recorded values is the supplement of paper PMC5662764.

The reader will find reported normalised growth rate inhibition values listed item by item below.
- Test system: SKBR3
- protocol_description: normalised growth rate inhibition (GR value) relative to DMSO control (GR (1 = untreated growth, 0 = cytostasis, <0 = cytotoxic)); higher = less growth inhibition
- condition_notes: 10 µM; 72 h

*Q* What normalised growth rate inhibition value was documented for this compound, CNC(=O)c1cc(Oc2ccc(NC(=O)Nc3ccc(Cl)c(C(F)(F)F)c3)cc2)ccn1 ?
*A* 0.212

*Q* What normalised growth rate inhibition value was documented for this compound, C=CC(=O)Nc1cccc(Nc2nc(NC3CCC(N(C)C)CC3)nc3c2ncn3C(C)C)c1 (centres undefined) ?
*A* -0.227

*Q* What normalised growth rate inhibition value was documented for this compound, CCC(=O)N1CCN(c2ccc(-n3c(=O)ccc4cnc5ccc(-c6cnc7ccccc7c6)cc5c43)cc2C(F)(F)F)CC1 ?
*A* -0.218

*Q* What normalised growth rate inhibition value was documented for this compound, Cc1cnc(-c2cnc(NCCNc3ccc(C#N)cn3)nc2-c2ccc(Cl)cc2Cl)[nH]1 ?
*A* 0.465
